Measurement Target: Steroidogenic factor 1 (Homo sapiens)
Assay Protocol: inhibitors of human SF-1, primary screen, cell-based, CHO-K1, Gal4-SF-1 LBD, luciferase luminescence (AID 525);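 further: 0% = SF-1 transfected cells with DMSO and 100% = mock-transfected cells lacking SF-1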
Condition Parameters: CHO-K1 Gal4-SF-1 LBD luciferase reporter; at 10 µM
In all, about 65,000 compounds went through this assay and about 360 (0.55%) were called active.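 How the source made its calls: active means inhibition above the mean inhibition of all tested compounds plus 3 SD (cut at about 48% in these data); inactive means the rest.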 Shown is part of a subset that was picked to be rich in actives.
// classify into 1 for active, -1 for inactive

O=C1CCC(Cc2ccccc2)N1 (stereo not drawn) = -1
O=C(c1cccc(C(=O)N2CCc3ccccc32)n1)N1CCc2ccccc21 = -1
CC[C@H]1CN2CCc3cc(OC)c(OC)cc3[C@@H]2C[C@@H]1C[C@H]1NCCc2cc(OC)c(OC)cc21 = 1
CCCCCN(C(=O)NC(=O)Nc1ccccc1OC)S(C)(=O)=O = -1
CCc1nnc(NC(=O)c2cccs2)s1 = -1
CN(C(=O)c1ccccn1)c1nnc(-c2ccccn2)s1 = -1
CN(c1ccc(C(=O)NCCC2=CCCCC2)cc1)S(C)(=O)=O = -1
O=C(CN1C(=O)C2C3C=CC(C3)C2C1=O)NCC1COc2ccccc2O1 (stereo not drawn) = -1

In this assay, the call recorded for CC(C)(C)NC(=O)C(c1ccco1)N(Cc1ccc2c(c1)OCO2)C(=O)Cn1nnc2ccccc21 (stereo not drawn) was what?
-1

In this assay, the call recorded for N#CCCN1CCN(S(=O)(=O)c2ccc(S(=O)(=O)N3CCCC3)cc2)CC1 was what?
-1

In this assay, the call recorded for NC(=O)C1CC=CCC1C(=O)OCC(Cl)=C(Cl)Cl (stereo not drawn) was what?
-1

---

Measurement Target: Steroidogenic factor 1 (Homo sapiens) (UniProt Q13285)
Sequence (Q13285 whole entry, looked up, the tested form may be a part): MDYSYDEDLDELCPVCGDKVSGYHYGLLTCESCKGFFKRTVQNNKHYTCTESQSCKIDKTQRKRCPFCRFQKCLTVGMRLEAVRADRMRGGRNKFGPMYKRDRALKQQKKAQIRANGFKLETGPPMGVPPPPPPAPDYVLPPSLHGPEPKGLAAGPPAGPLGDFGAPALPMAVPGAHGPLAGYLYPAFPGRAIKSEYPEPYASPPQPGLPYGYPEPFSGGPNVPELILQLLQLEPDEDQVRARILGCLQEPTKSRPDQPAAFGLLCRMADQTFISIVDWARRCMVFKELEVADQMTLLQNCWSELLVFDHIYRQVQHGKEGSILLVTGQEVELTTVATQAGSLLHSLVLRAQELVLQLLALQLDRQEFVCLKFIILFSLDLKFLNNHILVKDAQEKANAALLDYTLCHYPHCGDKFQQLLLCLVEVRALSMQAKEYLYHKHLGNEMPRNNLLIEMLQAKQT
Assay Protocol: inhibitors of human SF-1, primary screen, cell-based, CHO-K1, Gal4-SF-1 LBD, luciferase luminescence (AID 525)
Condition Parameters: CHO-K1 Gal4-SF-1 LBD luciferase reporter; at 10 µM; hits give high values
The campaign covered roughly 65,000 compounds. About 360 (0.55%) were called active. This is one part of a sample in which actives are shown more often than they occur.
Reported Metric: inhibition

Cc1cccc(CC(=O)Nc2c3c(nn2-c2cccc(Cl)c2)CS(=O)C3)c1 (stereo unspecified) = 13.6% (inactive)
C/C(=N\O)C1(C)N(O)C(C)(C)C(c2ccc(Br)cc2)=[N+]1[O-] (stereo unspecified) = 8.5% (inactive)
Cn1c(=O)c2c(nc(SCCNS(=O)(=O)c3ccccc3)n2C)n(C)c1=O = 13.3% (inactive)
CC1=C(C(=O)OCc2ccccc2)C(c2ccco2)n2ncnc2N1 (stereo unspecified) = 14.7% (inactive)
CCOc1ccccc1NC(=O)CCc1ccc(C)o1 = 14.7% (inactive)

Now consider a different compound.
Name the recorded inhibition for CSCC[C@H](NC(=O)NCCc1ccc(F)cc1)C(=O)O .
-3.2% (inactive)

---

Measurement Target: Steroidogenic factor 1 (Homo sapiens) (UniProt Q13285)
Assay Protocol: inhibitors of human SF-1, primary screen, cell-based, CHO-K1, Gal4-SF-1 LBD, luciferase luminescence (AID 525);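 further: 0% = SF-1 transfected cells with DMSO and 100% = mock-transfected cells lacking SF-1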
Condition Parameters: CHO-K1 Gal4-SF-1 LBD luciferase reporter; at 10 µM; hits give high values
Screen size: about 65,000 compounds; about 360 (0.55%) were called active. This excerpt belongs to a sample that is enriched for actives.
Kindly state inhibition for each of the entries shown.
Give bare numbers, in %.

CCCNC(=O)C1CC(=O)N(c2ccc(OCC(=O)Nc3cccc(C)c3C)cc2)C1 (stereo unspecified) = -1

State the recorded inhibition for every item in the following list.
1. CCC(=O)Oc1cccc(C(=O)Nc2ccc(-c3nnc(-c4ccco4)o3)cc2)c1
2. Clc1ccc(Cc2nnc(-c3cccs3)o2)cc1
3. COc1ccccc1Nc1ncnc2c1oc1ccccc12
4. CCOc1ccc(-c2nnc(-c3ccco3)o2)cc1
5. O=C(Nc1ccc(-c2nnc(-c3ccccc3)o2)cc1)C1CCCO1 (stereo unspecified)
6. CC(Oc1ccc(Cl)cc1)C(=O)Nc1ncccn1 (stereo unspecified)
7. CCC(=O)Nc1cccc(NC(=O)CSc2nnc(-c3ccc(NS(C)(=O)=O)cc3)n2C)c1

1: -79.8; 2: -59.5; 3: -91.8; 4: 48; 5: -65.9; 6: 16; 7: -2.4

State the recorded inhibition for every item in the following list.
1. COc1ccc(C)c2sc(=NC(=O)c3ccc(C#N)cc3)n(C)c12
2. O=C(NCc1ccccc1)C1C(=O)N(Cc2ccccc2)C(=O)C1C1(O)CCCC1 (stereo unspecified)
3. O=C(Cn1cc2c(n1)CCCCC2)NCCN1CCOCC1

1. -42.4
2. 4.4
3. 8.1

---

Measurement Target: Steroidogenic factor 1 (Homo sapiens)
Assay Protocol: inhibitors of human SF-1, primary screen, cell-based, CHO-K1, Gal4-SF-1 LBD, luciferase luminescence (AID 525);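 further: 0% = SF-1 transfected cells with DMSO and 100% = mock-transfected cells lacking SF-1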
Condition Parameters: CHO-K1 Gal4-SF-1 LBD luciferase reporter; at 10 µM; hits give high values
The campaign covered roughly 65,000 compounds. About 360 (0.55%) were called active. Shown is part of a subset that was picked to be rich in actives.
Kindly state inhibition for each of the entries shown.
Numbers only, in %.

// known answers, use as guide
Fc1cc(F)c2nc(N3CCOCC3)sc2c1 = -52.6
Cc1cc2nc(-c3ccc(NC(=O)c4cccnc4)cc3)oc2cc1C = -54.8
COc1ccc(N2CC(C)Cn3c2nc2c3c(=O)n(Cc3ccccc3F)c(=O)n2C)c(OC)c1 (stereo unspecified) = -2.3
COC(=O)c1ccc(NC(=O)C(C)N2C(=O)c3ccccc3C2=O)cc1 (stereo unspecified) = -11.5
CCn1c(CNc2ccc(OC)cc2)nnc1SCC(=O)c1ccc(OC)cc1 = 9.6

Now consider a different molecule.
Name the recorded inhibition for O=C(NCCN1C(=O)C2C3C=CC(C3)C2C1=O)Nc1ccccn1 (stereo unspecified) .
-7.6

---

Kindly state inhibition for each of the entries shown.
Measurement Target: Steroidogenic factor 1 (Homo sapiens) (UniProt Q13285)
Assay Protocol: inhibitors of human SF-1, primary screen, cell-based, CHO-K1, Gal4-SF-1 LBD, luciferase luminescence (AID 525);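 further: 0% = SF-1 transfected cells with DMSO and 100% = mock-transfected cells lacking SF-1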
Condition Parameters: CHO-K1 Gal4-SF-1 LBD luciferase reporter; at 10 µM; hits give high values
Among all 65,000 compounds or so, about 360 (0.55%) were called active. The sample as a whole holds a higher share of actives than the screen did.
Give bare numbers, in %.

CC12CN(Cc3ccccc3)CC(C)(CN(Cc3ccccc3)C1)C2=NO = 25.5

State the recorded inhibition for every item in the following list.
1. COCCN(CC(=O)Nc1ccccc1C)S(=O)(=O)c1ccc(S(=O)(=O)N2CCCC2)cc1
2. O=C(Nc1ccccc1C(F)(F)F)c1cc(-c2ccc(O)cc2)on1
3. COc1ccc(C2=NOC(C(=O)NCc3ccco3)C2)cc1OC (configuration not stated)
4. CC(C)C(c1nnnn1Cc1ccccc1)N1CCC(C(N)=O)CC1 (configuration not stated)
5. CCN(CC)c1ccc(C(=O)OCC(=O)c2ccco2)cc1
6. O=C(CN1C(=O)COc2ccccc21)Nc1ccc(F)cc1
7. O=S(=O)(c1cccs1)N1CCc2ccccc2C1

1. 0.4
2. -64.4
3. -23.3
4. 7.4
5. -53.6
6. 8.5
7. 12.2

State the recorded inhibition for every item in the following list.
1. COC(=O)c1sc(NC(=O)c2ccc(OC)cc2OC)nc1C
2. Fc1ccc2nc(Nc3nc4c(s3)CCCC4)sc2c1
3. COC(=O)c1cc(C(=O)CSc2nc(C)cc(C)n2)ccc1O
4. COc1cccc2sc(Nc3nc(C)c(C(C)=O)s3)nc12

[57.8, -90, 11.2, -109]

Taken from PubChem BioAssay AID525.
